Give measured IC50 for each item. Keep answers brief.
# Measured target: FLT3 kinase (Homo sapiens, UniProt P36888)
# Sequence (P36888 564-993): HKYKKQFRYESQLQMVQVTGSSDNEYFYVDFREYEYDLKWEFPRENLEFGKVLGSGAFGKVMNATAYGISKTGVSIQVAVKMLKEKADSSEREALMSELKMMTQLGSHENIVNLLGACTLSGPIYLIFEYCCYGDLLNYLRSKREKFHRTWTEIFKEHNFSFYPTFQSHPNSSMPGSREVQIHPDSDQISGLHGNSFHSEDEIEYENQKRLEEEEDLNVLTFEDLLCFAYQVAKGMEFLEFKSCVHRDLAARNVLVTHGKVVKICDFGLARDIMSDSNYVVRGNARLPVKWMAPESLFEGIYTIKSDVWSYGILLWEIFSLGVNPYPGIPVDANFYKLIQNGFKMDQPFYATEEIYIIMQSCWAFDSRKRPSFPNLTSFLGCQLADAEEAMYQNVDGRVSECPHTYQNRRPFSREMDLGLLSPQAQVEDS
One number for each entry, in nM.

# Compound, Unit of measurement, Endpoint result
data = [
    ("COc1cc2nn(CCS(C)(=N)=O)cc2cc1NC(=O)c1coc(-c2ccnc(C)c2)n1 (centres unmarked)", "nM", 0.44),
    ("Cc1cc(-c2nc(C(=O)Nc3cc4cn(C5CCN(C6COC6)CC5)nc4cc3C(C)(C)O)co2)ccn1", "nM", 0.41),
    ("Cc1cc(-c2nc(C(=O)Nc3cc4oc(N5CCOCC5)nc4nc3C(C)(C)O)co2)ccn1", "nM", 6.23),
]

Dear colleague, could you please provide IC50 for the compounds listed below?
1. COc1cc2nn(C3CCNCC3)cc2cc1NC(=O)c1coc(-c2ccnc(C(F)(F)F)c2)n1 [II-13C]
2. COc1cc2nn(C3CCNCC3)cc2cc1NC(=O)c1coc(-c2ccnc(C(F)F)c2)n1 [II-94C]

1. 0.44
2. 0.44

Data origin, for the record: patent US12195479B2
